Origin of values: the Human Domainome abundance scans (Beltran et al. 2025)

B1: DnaJ homolog subfamily C member 2, residues 451 to 503; numbered along this chain, Q99543 (parent)
chain: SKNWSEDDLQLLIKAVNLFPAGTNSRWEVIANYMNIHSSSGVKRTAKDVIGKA

# Variants of: B1
# assayText: abundance fitness (aPCA) (normalised: wild type 0, dead -1); higher = more abundant; growth selection in yeast, the domain comes from the species named
# testContext: Homo sapiens
Answer 0 (no) if abundance fitness is under -0.2, and 1 (yes) if it is -0.2 or more.

Recorded results for 5 variants are shown here.
primarysequence=SKNWSEDDLQLLIKAVNLFPAGTNSRWEVIANYMNIHSSSGVKRTAMDVIGKA category="1 (yes)"
primarysequence=SKNWSEDDLQLLIKAVNLFPAGTGSRWEVIANYMNIHSSSGVKRTAKDVIGKA category="0 (no)"
primarysequence=SKNWSEDDLQLLIKAVNLFPAGTNSRWEVIANYMNIHSSVGVKRTAKDVIGKA category="0 (no)"
primarysequence=SKNWSEDDLQLLIKAVNLFPAGTNSRWEVIANYMNIHSSSGVKRTAYDVIGKA category="0 (no)"
primarysequence=SKNWSEDDLQLLIKAVNLFPAGQNSRWEVIANYMNIHSSSGVKRTAKDVIGKA category="1 (yes)"

Req: Could you please find out whether SKNWSEDDLQLLIKAVNLFPAGTNSRWEVIANYMNIHSSSGVKRTAVDVIGKA has abundance fitness that meets -0.2 or exceeds it?
Resp: 1 (yes)

Req: Could you please find out whether SKNWSEDDLQLLIKAVNLCPAGTNSRWEVIANYMNIHSSSGVKRTAKDVIGKA has abundance fitness that meets -0.2 or exceeds it?
Resp: 0 (no)

Req: Could you please find out whether SKNWSEDDLQLCIKAVNLFPAGTNSRWEVIANYMNIHSSSGVKRTAKDVIGKA has abundance fitness that meets -0.2 or exceeds it?
Resp: 0 (no)

Req: Could you please find out whether SKNWSEDDLQLLIKAVNLFPAGTNSRWYVIANYMNIHSSSGVKRTAKDVIGKA has abundance fitness that meets -0.2 or exceeds it?
Resp: 0 (no)

Req: Could you please find out whether SKNWSEDDLQLLIKAVNLFPAGTISRWEVIANYMNIHSSSGVKRTAKDVIGKA has abundance fitness that meets -0.2 or exceeds it?
Resp: 1 (yes)

Req: Could you please find out whether SKNWSEDDLQLLIKAVNLFPAGTNSRWETIANYMNIHSSSGVKRTAKDVIGKA has abundance fitness that meets -0.2 or exceeds it?
Resp: 1 (yes)
